- test system: hGLP-1R (Homo sapiens, UniProt P43220)
- Sequence (P43220 24-463): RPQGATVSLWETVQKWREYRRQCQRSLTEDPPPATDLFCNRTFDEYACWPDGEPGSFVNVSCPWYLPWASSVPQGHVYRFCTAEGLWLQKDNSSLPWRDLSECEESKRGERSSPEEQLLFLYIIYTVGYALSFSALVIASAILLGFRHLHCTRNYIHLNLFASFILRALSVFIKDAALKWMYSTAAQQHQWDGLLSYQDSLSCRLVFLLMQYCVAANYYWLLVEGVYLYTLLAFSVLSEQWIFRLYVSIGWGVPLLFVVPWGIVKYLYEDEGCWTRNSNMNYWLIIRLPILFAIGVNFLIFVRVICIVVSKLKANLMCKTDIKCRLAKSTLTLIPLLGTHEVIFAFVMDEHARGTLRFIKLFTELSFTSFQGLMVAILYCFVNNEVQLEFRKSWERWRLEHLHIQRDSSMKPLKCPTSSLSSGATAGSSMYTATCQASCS
- protocol details: Functional cAMP activation in the presence of 0.1% casein (no HSA);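 also: intracellular cAMP rise after 30 min at 37 °C read by HTRF, normalized between buffer only (0%) and maximal control ligand (100%), four-parameter variable-slope fit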
- Assay type: cell-based
- experimental parameters: in the presence of 0.1% casein (no HSA); geometric mean; read-out: Relative cAMP EC50, hGLP-1R
Starred links: 1 amine or outer side, 2 acyl side, 3 side chain; linkers in the order of their positions; H or OH if unused. Non-standard residues stand in square brackets, D forms with d. Groups on a side chain read outwards from the residue. No end group written: not given here. *: point of attachment. C20 diacid = O=C(O)CCCCCCCCCCCCCCCCCCC(=O)*; C18 diacid = O=C(O)CCCCCCCCCCCCCCCCC(=O)*; γGlu = O=C(O)[C@H](CCC(=O)[*:2])N[*:1]; αMe4Pal = C[C@](N)(Cc1ccncc1)C(=O)O; αMeY = C[C@](N)(Cc1ccc(O)cc1)C(=O)O; 4Pal = N[C@@H](Cc1ccncc1)C(=O)O; αMeL = CC(C)C[C@](C)(N)C(=O)O; Orn = NCCC[C@H](N)C(=O)O; Dab = NCC[C@H](N)C(=O)O; AEEA = NCCOCCOCC(=O)O; Aib = CC(C)(N)C(=O)O
Reported log10 EC50 values follow for various substances
recorded metric: log10 EC50 (log10 of the value in nM)

>>> quantitative_readout("H-Y[Aib]QGTFTSD[4Pal]S[Dab][αMeL]LD[Orn]K([γGlu-γGlu-C18 diacid])AQ[αMe4Pal]AFIE[αMe4Pal]LLAGGPSSGAPPPEGSEE-NH2 [Example 1055]")
1.16
>>> quantitative_readout("H-Y[Aib]QGTFTSD[4Pal]SQ[αMeL]LD[Orn]K([AEEA-γGlu-C18 diacid])AQ[αMe4Pal]QFIE[αMeY]LIEGGPSSGAPPPSGS-NH2 [Example 857]")
-0.36
>>> quantitative_readout("H-Y[Aib]QGTFTSDFS[Orn][αMeL]LDKK([AEEA-γGlu-C18 diacid])AQ[αMe4Pal]AFIE[αMeY]LIEGGPSSGAPPPSGS-NH2 [Example 845]")
-0.79
>>> quantitative_readout("Y[Aib]QGTFTSDFSK[αMeL]LDKK([AEEA-γGlu-C20 diacid])AQ[Aib]AFIEYLLEGGPSSGEPPPTEG-NH2 [Example 36]")
0.55
>>> quantitative_readout("H-Y[Aib]QGTFTSDFS[Orn][αMeL]LDKK([AEEA-γGlu-C18 diacid])AQ[Aib]AFIEYLLAGGPSSGAPPPSGSE-NH2 [Example 90]")
0.43
>>> quantitative_readout("H-Y[Aib]QGTFTSDFS[Orn][αMeL]LDKK([AEEA-γGlu-C18 diacid])AQ[Aib]AFIEYLLE[Aib]GPSSG[Aib]PPPSGS-NH2 [Example 239]")
0.46
